inhibition at 50 µM reference
ASSAY_SYSTEM: UniProtKB P0DTD1
ASSAY: biochemical
Assay type: binding
TEST_CONDITIONS: FDA-approved compound library primary screen, 50 µM, single shot
Number only, in %; omit the unit.

Look up inhibition at 50 µM: Nc1nc(/C(=C/CC(=O)O)C(=O)N[C@@H]2C(=O)N3C(C(=O)O)=CCS[C@H]23)cs1 [Ceftibuten, reference compound]
71.6

Next molecule: CCOc1ccc2nc3cc(N)ccc3c(N)c2c1 [Ethacridine lactate, reference compound]
49.3

Next molecule: Oc1c(Cl)cc(Cl)c(Cl)c1Cc1c(O)c(Cl)cc(Cl)c1Cl [Hexachlorophene, reference compound]
85.5

Next molecule: CC(C)(O/N=C(\C(=O)N[C@@H]1C(=O)N2C(C(=O)[O-])=C(C[n+]3ccccc3)CS[C@H]12)c1csc(N)n1)C(=O)O [Ceftazidime, reference compound]
108

###

ASSAY_SYSTEM: UniProt P0DTD1
ASSAY: biochemical
Type: binding
TEST_CONDITIONS: BioAscent virtual screening hit compounds, 25 µM, duplicate
ASSAY_METRIC: inhibition at 25 µM (%)
Number only, in %; omit the unit.

COMPOUND | inhibition at 25 µM [%]
Cc1cc2nn(-c3ccccc3)nc2cc1N [BCC0086077, Cc1cc2nn(-c3ccccc3)nc2cc1N] | 67.8
Cc1cccn2c(=O)c3cc(C(=O)O)n(C)c3nc12 | 30.6
Nc1ccc2nc3c(=O)[nH]c(=O)[nH]c3nc2c1 [BCC0091906, Nc1ccc2nc3c(=O)[nH]c(=O)[nH]c3nc2c1] | 56.2
COc1cc(/C=C/C(=O)c2cc3ccccc3o2)cc(Br)c1O | 39.3

Which inhibition at 25 µM is reported with UniProt P0DTD1 for this entry: CN(C)c1ccc(-c2ccc3ccccc3n2)cc1 [BCC0083752, CN(C)c1ccc(-c2ccc3ccccc3n2)cc1] ?
46.8

Next compound: CC(=O)c1ccc(-c2ccc(N)cc2)s1 [IAL-MD0305, CC(=O)c1ccc(-c2ccc(N)cc2)s1]
56.2

###

ASSAY_SYSTEM: SARS-CoV-2 NSP3 Mac1 (Severe acute respiratory syndrome coronavirus 2)
ASSAY: biochemical
Type: binding
TEST_CONDITIONS: FDA-approved compound library primary screen, 50 µM, single shot
ASSAY_METRIC: inhibition at 50 µM (%)
Number only, in %; omit the unit.

Sample answers from the record:
COMPOUND | MEASURED_VALUE
C[C@H]1[C@H](NC(=O)/C(=N\OC(C)(C)C(=O)O)c2csc(N)n2)C(=O)N1S(=O)(=O)O [Aztreonam, reference compound] | 42.8
O=C(O)c1cc(O)c2c(c1)[C@H]([C@H]1c3cc(C(=O)O)cc(O)c3C(=O)c3c(O[C@@H]4O[C@H](CO)[C@@H](O)[C@H](O)[C@H]4O)cccc31)c1cccc(O[C@@H]3O[C@H](CO)[C@@H](O)[C@H](O)[C@H]3O)c1C2=O [Sennoside A, reference compound] | 112

Look up inhibition at 50 µM: COc1ccc(C(=O)CC(=O)c2ccc(C(C)(C)C)cc2)cc1 [Avobenzone, reference compound]
61.8

###

ASSAY_SYSTEM: SARS-CoV-2 NSP3 Mac1 (Severe acute respiratory syndrome coronavirus 2)
ASSAY: biochemical
Assay type: binding
TEST_CONDITIONS: MIDAS hit compounds and analogues, 125 µM; read-out: Inhibition at top concentration of 125 µM (%)
inhibition at 125 µM reference
Number only, in %; omit the unit.

Sample answers from the record:
COMPOUND | inhibition at 125 µM [%]
CC1CN(C(=O)c2cc(-c3cccs3)nc3c2cnn3C(C)C)C(C)(C)CO1 (centres unmarked) | 22.3
COc1ccc(-c2cc(C(=O)NC3CC3)c3ccccc3n2)cc1 | 38.4

Look up inhibition at 125 µM: `COc1cccc(NC(=O)c2cc(-c3cccs3)nc3c2cnn3C(C)C)c1`
12.1

Next compound: `COCCN(CC(N)=O)C(=O)c1cc(-c2cccs2)nc2c1c(C)nn2C`
55.8

Next compound: `COc1ccc(-c2cc(C(=O)O)c3ccc(OC)cc3n2)cc1`
44.7
